System: intraocular pressure
Assay: IOP response in lasered (hypertensive) eyes of conscious cynomolgus monkeys
Format: in vivo, cynomolgus monkey
Settings: 300 μg topical ocular, 6 hours after dose
Procedure: IOP Response in Lasered (Hypertensive) Eyes of Conscious Cynomolgus Monkeys Intraocular pressure (IOP) was determined with an Alcon Pneumatonometer after light corneal anesthesia with 0.1% proparacaine. Eyes were washed with saline after each measurement. After a baseline IOP measurement, test compound was instilled in one 30 μL aliquot to the right eyes only of nine cynomolgus monkeys. Vehicle was instilled in the right eyes of six additional animals. […]
Observed Property: Percent IOP Reduction (%)
Respond numerically; units are % and should not be typed.

Result for CC(N)Cn1ccc2ccc(O)cc21.O=C(O)/C=C/C(=O)O (stereo not shown) , tested on intraocular pressure, Percent IOP Reduction: 27

Result for CC(N)Cn1ccc2cc(Cl)ccc21.O=C(O)/C=C/C(=O)O (stereo not shown) , tested on intraocular pressure, Percent IOP Reduction: 20.1

Result for COc1ccc2[nH]cc(CC(C)N)c2c1.O=C(O)/C=C/C(=O)O (stereo not drawn) [α-Methyl 5-methoxytryptamine fumarate] , tested on intraocular pressure, Percent IOP Reduction: 22.6

Result for COc1ccc2ccn(CC(C)N)c2c1.O=C(O)/C=C/C(=O)O (stereo not shown) , tested on intraocular pressure, Percent IOP Reduction: 27.5
